Data origin, for the record: patent US20140147444A1

Molecular target: T1, human OPGbp [143-317] (human, UniProt O14788 143-317)
T1 construct: also called OPGL
T1 sequence (looked up): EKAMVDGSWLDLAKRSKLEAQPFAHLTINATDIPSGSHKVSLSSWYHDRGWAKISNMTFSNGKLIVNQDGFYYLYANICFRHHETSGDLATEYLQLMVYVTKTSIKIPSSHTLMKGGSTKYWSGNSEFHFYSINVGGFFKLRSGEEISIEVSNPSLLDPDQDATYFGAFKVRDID
Assay: SPR (BIAcore), immobilized OPGbp [143-317]
binders and their reported koff
Answer in s⁻¹, number only, no unit symbol.

The cases that follow already have their koff on record.
BINDER | koff (s⁻¹)
“AT” antibody variant S96N (heavy chain CDR3) (antibody, name in Kabat numbering, V domains shown, not shown: human IgG1 CH1, hinge, CH2 and CH3) VH: QVQLVQSGAEVRKPGASVKVSCKASGYDFSNYAIHWVRQAPGQRLEWMGWINAGNGNTKFSQKFQGRITVTRDTAASTAYMELRSLRSEDTAVYYCARDNSNMVRGIIIAYYFDYWGQGTLVTVSS VL: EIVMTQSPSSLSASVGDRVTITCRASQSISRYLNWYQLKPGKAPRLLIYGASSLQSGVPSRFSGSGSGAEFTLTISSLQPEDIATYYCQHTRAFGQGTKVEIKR | 0.00215
“AT” antibody variant S96V (heavy chain CDR3) (antibody, name in Kabat numbering, V domains shown, not shown: human IgG1 CH1, hinge, CH2 and CH3) VH: QVQLVQSGAEVRKPGASVKVSCKASGYDFSNYAIHWVRQAPGQRLEWMGWINAGNGNTKFSQKFQGRITVTRDTAASTAYMELRSLRSEDTAVYYCARDVSNMVRGIIIAYYFDYWGQGTLVTVSS VL: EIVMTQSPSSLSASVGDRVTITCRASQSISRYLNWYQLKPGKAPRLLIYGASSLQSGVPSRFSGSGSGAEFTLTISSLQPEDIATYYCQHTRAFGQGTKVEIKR | 0.0121
“AT” antibody variant S96K (heavy chain CDR3) (antibody, name in Kabat numbering, V domains shown, not shown: human IgG1 CH1, hinge, CH2 and CH3) VH: QVQLVQSGAEVRKPGASVKVSCKASGYDFSNYAIHWVRQAPGQRLEWMGWINAGNGNTKFSQKFQGRITVTRDTAASTAYMELRSLRSEDTAVYYCARDKSNMVRGIIIAYYFDYWGQGTLVTVSS VL: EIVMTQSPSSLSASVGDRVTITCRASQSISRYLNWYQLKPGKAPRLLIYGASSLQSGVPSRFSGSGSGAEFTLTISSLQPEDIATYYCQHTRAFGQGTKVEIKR | 0.00141
“AT” antibody variant S96G (heavy chain CDR3) (antibody, name in Kabat numbering, V domains shown, not shown: human IgG1 CH1, hinge, CH2 and CH3) VH: QVQLVQSGAEVRKPGASVKVSCKASGYDFSNYAIHWVRQAPGQRLEWMGWINAGNGNTKFSQKFQGRITVTRDTAASTAYMELRSLRSEDTAVYYCARDGSNMVRGIIIAYYFDYWGQGTLVTVSS VL: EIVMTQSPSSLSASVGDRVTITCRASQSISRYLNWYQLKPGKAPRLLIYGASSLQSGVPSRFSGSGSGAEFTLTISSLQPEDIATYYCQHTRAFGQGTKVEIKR | 0.015

Would you kindly look at the next entry?
# koff (binder: “AT” antibody variant S96Q (heavy chain CDR3) (antibody, name in Kabat numbering, V domains shown, not shown: human IgG1 CH1, hinge, CH2 and CH3) VH: QVQLVQSGAEVRKPGASVKVSCKASGYDFSNYAIHWVRQAPGQRLEWMGWINAGNGNTKFSQKFQGRITVTRDTAASTAYMELRSLRSEDTAVYYCARDQSNMVRGIIIAYYFDYWGQGTLVTVSS VL: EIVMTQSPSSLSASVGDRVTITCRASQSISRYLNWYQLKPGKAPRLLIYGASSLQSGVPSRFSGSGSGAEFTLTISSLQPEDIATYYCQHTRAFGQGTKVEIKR ) is 0.00359
